Sourced from patent US20100249172A1

Study Target: tubulin
Construct: other: 2 μM tubulin, 45 min at 37° C., pH 6.8; mean±SD, four experim
Test: Tubulin binding assay (fluorescence titration / quenching)
Parameters: species or system mammalian
Measurement Parameters: 2 μM tubulin, 45 min at 37° C., pH 6.8; mean±SD, four experiments; read-out: dissociation constant (Kd) for binding to tubulin
Measured Endpoint: pKd
Reminder that pKd means the negative base-10 logarithm of the concentration expressed in mol/L.

Input: # return recorded pKd for input COc1ccc2c(c1OC)C(=O)O[C@@H]2[C@H]1c2c(c(Cl)c3c(c2OC)OCO3)CCN1C [9-Cl-nos]
Output: 4.40

* * *

Test system: MCF-7 cells
Test: Cell cycle analysis by flow cytometry (propidium iodide)
Assay type: cell-based, human
Measurement Parameters: 25 μM, 48 h, mean ± S.E.M.
// S % lookup, one value per entry
API: value field is a number in %; no unit string.

Example molecules with recorded S %:
{"Molecule": "COc1ccc2c(c1OC)C(=O)O[C@@H]2[C@H]1c2c(cc3c(c2OC)OCO3)CCN1C [Nos, reference compound]", "Meas Value": 4.1}
{"Molecule": "COc1ccc2c(c1OC)C(=O)O[C@@H]2[C@H]1c2c(c(I)c3c(c2OC)OCO3)CCN1C", "Meas Value": 2.9}

Input: # return recorded S % for input `COc1ccc2c(c1OC)C(=O)O[C@@H]2[C@H]1c2c(c(Br)c3c(c2OC)OCO3)CCN1C`
Output: 2.8

Input: # return recorded S % for input `COc1ccc2c(c1OC)C(=O)O[C@@H]2[C@H]1c2c(c(F)c3c(c2OC)OCO3)CCN1C`
Output: 3.5

Input: # return recorded S % for input `COc1ccc2c(c1OC)C(=O)O[C@@H]2[C@H]1c2c(c(Cl)c3c(c2OC)OCO3)CCN1C`
Output: 4
